FYI, the data here is from patent US20130022605A1.

Items are presented alongside their recorded L929 Cell Assay, Activity (IC50).
testedTarget: T1, mouse TNFR1 on L929 cells (mouse, UniProt P25118 30-454)
T1 sequence (looked up): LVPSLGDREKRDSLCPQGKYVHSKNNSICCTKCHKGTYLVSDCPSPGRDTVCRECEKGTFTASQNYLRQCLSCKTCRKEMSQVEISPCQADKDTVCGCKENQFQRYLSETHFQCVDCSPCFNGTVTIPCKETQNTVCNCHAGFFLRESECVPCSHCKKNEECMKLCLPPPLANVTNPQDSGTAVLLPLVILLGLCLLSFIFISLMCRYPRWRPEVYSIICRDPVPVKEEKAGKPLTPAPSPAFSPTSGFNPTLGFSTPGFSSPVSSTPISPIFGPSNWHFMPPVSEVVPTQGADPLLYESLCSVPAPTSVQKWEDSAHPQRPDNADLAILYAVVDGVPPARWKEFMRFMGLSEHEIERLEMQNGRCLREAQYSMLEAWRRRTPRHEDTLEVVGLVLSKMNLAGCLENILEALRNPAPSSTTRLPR
assayInfo: cell-based or functional assay
Report only the number, with the unit nM understood.

Solved cases below.
The binder listed as TAR2m-21-06 (other) EVQLLESGGGLVQPGGSLRLSCAASGFTFTRYSMGWIRQAPGKGLEWVSRIDSYGRGTYYADSVKGRFTISRDNSKNTLYLQMNSLRAEDTAVYYCAKISQFGSNAFDYWGQGTLVTVSS has a reported L929 Cell Assay, Activity (IC50) of 100

The binder listed as TAR2m-21 (other) EVQLLESGGGLVQPGGSLRLSCAASGFTFTRYSMGWVRQAPGKGLEWVSRIDSYGRGTYYADSVKGRFTISRDNSKNTLYLQMNSLRAEDTAVYYCAKISQFGSNAFDYWGQGTLVTVSS has a reported L929 Cell Assay, Activity (IC50) of 400

The binder listed as TAR2m-21-43 (other) EVQLLESGGGLVQPGGSLRLSCAASGFTFTRYSMGWLRQAPGKGLEWVSRIDSYGRGTYDADSVKGRFTISRDNSKNTLYLQMNSLRAEDTAVYYCAKISQFGSNAFDYWGQGTLVTVSS has a reported L929 Cell Assay, Activity (IC50) of 6

The binder listed as TAR2m-21-48 (other) EVQLLESGGGLIQPGGSLRLSCAASGFTFTRYSMGWLRQAPGKGLEWVSRIDSYGRGTYDTDSVKGRFTISRDNSRNTLYLQMNSLRAEDTAVYYCAKISQFGSNAFDYWGQGTLVTVSS has a reported L929 Cell Assay, Activity (IC50) of 6

The binder listed as TAR2m-21-10 (other) EVQLLESGGGLVQPGGSLRLSCAASGFTFTRYSMGWLRQAPGKGLEWVSRIDSYGRGTYYADSVKGRFTISRDNSKNTLYLQMNSLRAEDTAVYYCAKISQFGSNAFDYWGQGTLVTVSS has a reported L929 Cell Assay, Activity (IC50) of 30

The binder listed as TAR2m-21-17 (other) EVQLLESGGGLVQPGGSLRLSCAASGFTFTRYSMGWVRQAPGKGLEWVSRIDSYGRGTYYADSVKGRFTISRDNSKNTLYLQMNSLRAEDTAVYYCAKISQFGSNAFDYWGQGTVVTVSS has a reported L929 Cell Assay, Activity (IC50) of 300

Let's switch to this binder now.
The binder listed as TAR2m-21-07 (other) EVQLLESGGGLVQPGGSLRLSCAASGFTFSRCSMGWLRQAPGKGLEWVSRIDSYGRGTYYADSVKGRFTISRDNSKNTLYLQMNSLRAEDTAVYYCAKISKFGSNAFDYWGQGTLVTVSS has a reported L929 Cell Assay, Activity (IC50) of 10
